Values compiled from PubChem BioAssay AID330.

# System: P388 leukemia ip, CD2F1 mice, survival T/C
# experiment.notes: NCI In Vivo Anticancer Drug Screen. Data for tumor model P388 Leukemia (intraperitoneal) in CD2F1 (CDF1) mice
# applied.conditions: endpoint: median survival time; dose: 240.0 mg/kg/injection; schedule: Q01DX005 (ip); vehicle: saline with Tween-80; higher = longer survival
Inconclusive results and toxic doses are left out.
assay.endpoint: T/C

// solved cases for T/C follow
{"molecule": "O=C(N/N=C/c1ccco1)c1cccnc1", "system.name": "P388 leukemia ip, CD2F1 mice, survival T/C", "result": "101 % of control"}
{"molecule": "Cc1ccc(S(=O)(=O)OCCC(C)OS(=O)(=O)c2ccc(C)cc2)cc1 (centres undefined)", "system.name": "P388 leukemia ip, CD2F1 mice, survival T/C", "result": "101 % of control"}
{"molecule": "COC(=O)C(=CNC(N)=O)C(=O)OC", "system.name": "P388 leukemia ip, CD2F1 mice, survival T/C", "result": "94 % of control"}

In: Given the entry `Cc1ccc(NC(=O)c2cc3ccccc3c(N=Nc3ccccc3O)c2O)c(C)c1` , report its measured T/C.
Out: 97 % of control

In: Given the entry `Nc1nnc(-c2ccccc2S)o1` , report its measured T/C.
Out: 110 % of control

In: Given the entry `COC(=O)[C@@H]1CC/C(=C(\C#N)C(=O)OC(C)(C)C)N1` , report its measured T/C.
Out: 91 % of control

In: Given the entry `CSCC[C@]1(C)C(=O)N(C)[C@H](C(C)(C)C)N1C(=O)c1ccccc1` , report its measured T/C.
Out: 93 % of control

In: Given the entry `O=C(Nc1cccc(Br)c1)Oc1ccc(Cl)c2cccnc12` , report its measured T/C.
Out: 88 % of control

In: Given the entry CCOC1=Nc2ccccc2C1(C)CCO (centres undefined) , report its measured T/C.
Out: 96 % of control

In: Given the entry `CSC(SC)c1cc(-c2c(Cl)cccc2Cl)no1` , report its measured T/C.
Out: 103 % of control

In: Given the entry `O=C1N=C2SCCCN2C1(c1ccccc1)c1ccccc1` , report its measured T/C.
Out: 100 % of control

In: Given the entry `CC1=C(C(=O)CC(=O)C(=O)Nc2ccc(C)cc2C)Sc2ccccc2N1` , report its measured T/C.
Out: 94 % of control

In: Given the entry CCC(c1ccc(O)cc1)C(CC)c1ccc(OCC(N)=O)cc1 (centres undefined) , report its measured T/C.
Out: 94 % of control

In: Given the entry `Cc1nc2ccccc2nc1N` , report its measured T/C.
Out: 98 % of control

In: Given the entry Oc1cc2c(cc1C(c1ccc(Cl)cc1)N1CCOCC1)OCO2 (centres undefined) , report its measured T/C.
Out: 124 % of control

====

# System: P388 leukemia ip, CD2F1 mice, survival T/C
# experiment.notes: NCI In Vivo Anticancer Drug Screen. Data for tumor model P388 Leukemia (intraperitoneal) in CD2F1 (CDF1) mice
# applied.conditions: endpoint: median survival time; dose: 25.0 mg/kg/injection; schedule: Q01DX009 (ip); vehicle: saline
Inconclusive results and toxic doses are left out. Rule for the calls: active = survival T/C of 150% or more; inactive = T/C below 125% in these data.
Field 'call' accepts active, inactive

Worked cases, answers included:
{"compound": "C[C@]12CCC(=O)C=C1CC[C@H]1[C@@H]3CC[C@](O)(C(=O)CF)[C@@]3(C)C[C@H](O)[C@@]12F", "class.name": "inactive"}
{"compound": "CCc1c(C#N)c(S)[nH]c(=S)c1C#N", "class.name": "inactive"}
{"compound": "NC(=O)c1ccccn1", "class.name": "inactive"}
{"compound": "O=NNc1ccc(-c2ccccc2)cn1", "class.name": "active"}
{"compound": "S=C(Nc1ccc(Br)cc1)SCc1ccco1", "class.name": "inactive"}
{"compound": "CN1CCCC(C(=O)c2ccccc2)C1 (centres undefined)", "class.name": "inactive"}
{"compound": "CC1CN1P(=O)(N1CCCC1)N1CC1C (centres undefined)", "class.name": "active"}
{"compound": "CC(=O)/C(C)=C/C(=O)O", "class.name": "inactive"}

Field: next compound
In: Test call for this compound, please: `CCN(CC)CCSC(=O)C(O)(c1ccccc1)c1ccccc1`
Out: inactive
